Test Description: circadian clock period modulators, cell-based, LOPAC library, luminescence reporter (AID 2774)
Recorded Conditions: circadian reporter cells, at 7 µM, actives lie on both sides
Calls of active or inactive are those of the source. No rule for the calls is given here.
Classes used: active, inactive

[
  {
    "Compound": "CC1CC2C3CCC4=CC(=O)C=C[C@]4(C)[C@@]3(F)[C@@H](O)C[C@]2(C)[C@@]1(O)C(=O)CO (stereo partly specified)",
    "Category": "inactive"
  },
  {
    "Compound": "S=C(S)OC1CC2CC1C1CCCC21 (stereo unspecified)",
    "Category": "inactive"
  },
  {
    "Compound": "Oc1cc2c(c(Cl)c1O)CCNCC2c1ccccc1 (stereo unspecified)",
    "Category": "inactive"
  },
  {
    "Compound": "CN(C)c1ccc(/C=C2\\C(=O)Nc3ccccc32)cc1",
    "Category": "inactive"
  },
  {
    "Compound": "N[C@H](C(=O)O)c1cc(O)cc(O)c1",
    "Category": "inactive"
  },
  {
    "Compound": "CCOC(=O)C1=C(C)NC(=S)NC1c1cccc(O)c1 (stereo unspecified)",
    "Category": "inactive"
  },
  {
    "Compound": "O=C(OCCN1CCOCC1)C1(c2ccccc2)CCCCC1",
    "Category": "inactive"
  },
  {
    "Compound": "CCN(CC)CC#CCOC(=O)C(O)(c1ccccc1)C1CCCCC1 (stereo unspecified)",
    "Category": "inactive"
  },
  {
    "Compound": "COC1(C2=NCCN2)COc2ccccc2O1 (stereo unspecified)",
    "Category": "inactive"
  },
  {
    "Compound": "Cc1cnc(C(=O)NCCc2ccc(S(=O)(=O)NC(=O)NC3CCCCC3)cc2)cn1",
    "Category": "inactive"
  },
  {
    "Compound": "CCCCCCN(CCCCCC)C(=O)Cc1c(-c2ccc(F)cc2)[nH]c2ccccc12",
    "Category": "inactive"
  },
  {
    "Compound": "CC[N+](CC)(CC)CC(=O)Nc1c(C)cccc1C",
    "Category": "inactive"
  },
  {
    "Compound": "NCC(O)c1ccc(O)c(O)c1 (stereo unspecified)",
    "Category": "inactive"
  },
  {
    "Compound": "NC(=O)CNCCC(c1ccccc1)c1ccccc1",
    "Category": "inactive"
  },
  {
    "Compound": "CC(C)NC[C@H](O)COc1cccc2[nH]ccc12",
    "Category": "inactive"
  },
  {
    "Compound": "N[C@H]1CONC1=O",
    "Category": "inactive"
  },
  {
    "Compound": "CCCN(CC1CC1)c1nc(C)nc(Nc2c(Cl)cc(Cl)cc2Cl)c1Cl",
    "Category": "inactive"
  },
  {
    "Compound": "CC(C)(C=O)Cc1cc(C(C)(C)C)c(O)c(C(C)(C)C)c1",
    "Category": "inactive"
  },
  {
    "Compound": "CC(C)NC[C@H](O)COc1cccc2ccccc12",
    "Category": "inactive"
  },
  {
    "Compound": "CC1=C(C(=O)O)N2C(=O)[C@@H](NC(=O)C(N)c3ccccc3)[C@H]2SC1 (stereo partly specified)",
    "Category": "inactive"
  },
  {
    "Compound": "CCCCS(=N)(=O)CCC(N)C(=O)O (stereo unspecified)",
    "Category": "inactive"
  },
  {
    "Compound": "COC(=O)c1c(C)[nH]c(C)c1C(=O)c1ccccc1Cc1ccccc1",
    "Category": "inactive"
  },
  {
    "Compound": "CC(C)(C)NCC(O)COc1cccc2[nH]c(=O)[nH]c12 (stereo unspecified)",
    "Category": "inactive"
  },
  {
    "Compound": "O=c1[nH]c2cc([N+](=O)[O-])c([N+](=O)[O-])cc2[nH]c1=O",
    "Category": "inactive"
  },
  {
    "Compound": "O=C(NCCNCC(O)COc1ccc(O)cc1)N1CCOCC1 (stereo unspecified)",
    "Category": "inactive"
  },
  {
    "Compound": "COc1ccccc1N1CCN(CCN2C(=O)CC3(CCCC3)CC2=O)CC1",
    "Category": "inactive"
  },
  {
    "Compound": "O=C1Cc2c([nH]c3ccc(Br)cc23)-c2ccccc2N1",
    "Category": "active"
  },
  {
    "Compound": "O=c1cc(N2CCOCC2)oc2c(-c3ccccc3)cccc12",
    "Category": "inactive"
  },
  {
    "Compound": "O=[N+]([O-])c1cccc2c(Br)[nH]nc12",
    "Category": "inactive"
  },
  {
    "Compound": "CC(=O)NNC(=O)N1Cc2ccccc2Oc2ccc(Cl)cc21",
    "Category": "inactive"
  },
  {
    "Compound": "C/C(=C\\c1ccc(C(=O)O)cc1)c1ccc2c(c1)C(C)(C)CCC2(C)C",
    "Category": "inactive"
  },
  {
    "Compound": "CCN(CC)CCOC(=O)c1cc(Cl)c(N)cc1OC",
    "Category": "inactive"
  },
  {
    "Compound": "COc1nc(C)nc(Cl)c1NC1=NCCN1",
    "Category": "inactive"
  },
  {
    "Compound": "Cc1cccc(C#Cc2ccccc2)n1",
    "Category": "inactive"
  },
  {
    "Compound": "CC1CCN=C(N)S1 (stereo unspecified)",
    "Category": "inactive"
  },
  {
    "Compound": "CC(C)N(CCC(=O)c1ccc2ccccc2c1)Cc1ccccc1",
    "Category": "inactive"
  },
  {
    "Compound": "S=C(S)N1CCCC1",
    "Category": "inactive"
  },
  {
    "Compound": "COc1cc2c(CCNC(C)=O)c[nH]c2cc1Cl",
    "Category": "inactive"
  },
  {
    "Compound": "Cc1nc2c(OCc3ccccc3)cccn2c1CC#N",
    "Category": "inactive"
  },
  {
    "Compound": "CC(=O)c1ccc(S(=O)(=O)NC(=O)NC2CCCCC2)cc1",
    "Category": "inactive"
  },
  {
    "Compound": "O=C1NC(c2cccc([N+](=O)[O-])c2)=CCN1c1ccccc1O",
    "Category": "inactive"
  },
  {
    "Compound": "O=C(Nc1ccccc1)c1cc([N+](=O)[O-])ccc1Cl",
    "Category": "inactive"
  },
  {
    "Compound": "COc1cccc(-c2cc(=O)c3ccccc3o2)c1N",
    "Category": "inactive"
  },
  {
    "Compound": "NCCCCNCCCN",
    "Category": "inactive"
  },
  {
    "Compound": "CN1CCC[C@H]1c1cccnc1",
    "Category": "inactive"
  },
  {
    "Compound": "CCSC(=N)N",
    "Category": "inactive"
  },
  {
    "Compound": "Oc1cc(O)cc(/C=C/c2ccc(O)c(O)c2)c1",
    "Category": "inactive"
  },
  {
    "Compound": "O=C(O)C1CCCN(CCC=C(c2ccccc2)c2ccccc2)C1 (stereo unspecified)",
    "Category": "inactive"
  },
  {
    "Compound": "c1ccc(C2CN3CCSC3=N2)cc1 (stereo unspecified)",
    "Category": "inactive"
  },
  {
    "Compound": "CC(/C=C/c1cccc(Oc2ccc(F)cc2)c1)N(O)C(N)=O (stereo unspecified)",
    "Category": "inactive"
  },
  {
    "Compound": "Oc1ccc(-c2nc(-c3ccc(F)cc3)c(-c3ccncc3)[nH]2)cc1",
    "Category": "active"
  }
]
